System: ANKA strain of Plasmodium berghei
test.name: Single dose ED50/ED90/ED99 determination in infected mice
Assay type: in vivo
condition.summary: single dose po in SSV on day 1 post-infection; parasitemia day 3; nonlinear fitting
parameter: ED99 (mg/kg)
I only need the number, in mg/kg, no unit after it.

Worked examples, 3 compounds total:
compound | ED99, mg/kg
O=C(NO)[C@H]1CC[C@@]2(CC1)OOC1(O2)C2CC3CC(C2)CC1C3 (some centres unmarked) | 19
c1ccc(C[C@H]2CC[C@]3(CC2)OOC2(O3)C3CC4CC(C3)CC2C4)cc1 (some centres unmarked) | 4.7
c1ncn(C[C@H]2CC[C@]3(CC2)OOC2(O3)C3CC4CC(C3)CC2C4)n1 (some centres unmarked) [OZ177] | 5.8

Query block: I have this compound here, CCN(CC)CCCC(C)Nc1ccnc2cc(Cl)ccc12 (centres unmarked) [CQ, chloroquine, reference compound] , and I need its recorded ED99.
Result block: 5.9

Query block: Given CC(C)(N)CNC(=O)C[C@H]1CC[C@]2(CC1)OO[C@]1(O2)C2CC3CC(C2)CC1C3 , state its recorded ED99.
Result block: 4.4

Query block: What ED99 value was documented for this compound, C[C@H]1[C@H](OC(=O)CCC(=O)O)O[C@@H]2O[C@@]3(C)CC[C@H]4[C@H](C)CC[C@@H]1[C@@]24OO3 [AS, artesunate, reference compound] ?
Result block: 60

Query block: I have this compound here, COCC(=O)N1CCC2(CC1)OOC1(O2)C2CC3CC(C2)CC1C3 (centres unmarked) , and I need its recorded ED99.
Result block: 19

Query block: Can you look up the measured ED99 of CO[C@H]1O[C@@H]2O[C@@]3(C)CC[C@H]4[C@H](C)CC[C@@H]([C@H]1C)[C@@]24OO3 [AM, artemether, reference compound] for me?
Result block: 7.1

Query block: So what's the measured ED99 for this one? CC(C)(O)C[C@H]1CC[C@]2(CC1)OOC1(O2)C2CC3CC(C2)CC1C3 (some centres unmarked)
Result block: 6.0

Query block: What measured ED99 goes with c1ccc(C2CCC3(CC2)OOC2(O3)C3CC4CC(C3)CC2C4)cc1 (centres unmarked) ?
Result block: 9.9

Query block: Value lookup for ED99; key = O=C(O)CC1CCC2(CC1)OOC1(O2)C2CC3CC(C2)CC1C3 (centres unmarked)
Result block: 17

Query block: Query: ED99; subject: NC[C@H]1CC[C@]2(CC1)OOC1(O2)C2CC3CC(C2)CC1C3 (some centres unmarked) [OZ181]
Result block: 4.0

Query block: Would you mind telling me what ED99 value was observed for NC[C@H]1CC[C@]2(CC1)OOC1(O2)C2CC3CC(C2)CC1C3 (some centres unmarked) [OZ209] ?
Result block: 3.0

Query block: I would be grateful if you could share the reported ED99 for CC1(C)COC2(CCC3(CC2)OOC2(O3)C3CC4CC(C3)CC2C4)OC1 (centres unmarked) .
Result block: 8.2

Query block: Field request: ED99 | item: c1cn(CC[C@H]2CC[C@]3(CC2)OOC2(O3)C3CC4CC(C3)CC2C4)cn1 (some centres unmarked)
Result block: 5.2

Query block: Quick one: ED99 of OC(c1cc(C(F)(F)F)nc2c(C(F)(F)F)cccc12)C1CCCCN1 (centres unmarked) [MFQ, mefloquine, reference compound] ?
Result block: 6.8

Query block: # get_value(readout='ED99', item= O=C1CCC2(CC1)OOC1(O2)C2CC3CC(C2)CC1C3 (centres unmarked) )
Result block: 15
